# ASSAY SYSTEM: human cathepsin K (UniProt P43236)
# PROTOCOL TEXT: Cathepsin K Assay (hrbCat K)
# Assay type: biochemical
# PROTOCOL CONDITIONS: Z-Leu-Arg-AMC substrate, pH 5.5, 15 min preincubation; read-out: hrbCat K (IP (nM))
EXPERIMENTAL ENDPOINT: IC50 (nM)

SMILES	IC50 [nM]
N#CC1(NC(=O)[C@@H]2CCCC[C@H]2c2nc(C3(c4ccccc4)CC3)sc2-c2ccc(N3CCS(=O)(=O)CC3)cc2)CC1	2.1
CC(C)(C)c1nc([C@@H]2CCCC[C@H]2C(=O)NC2(C#N)CC2)c(-c2ccc(N3CCS(=O)(=O)CC3)cc2)o1	2.4
N#CC1(NC(=O)[C@@H]2CCCC[C@H]2c2nc([C@@H]3CCOC3)sc2-c2ccc(N3CCS(=O)(=O)CC3)cc2)CC1	4

[A] CC(C)(CO)c1nc([C@@H]2CCCC[C@H]2C(=O)NC2(C#N)CC2)c(-c2ccc(N3CCS(=O)(=O)CC3)cc2)s1
[B] N#CC1(NC(=O)[C@@H]2C[C@@H](F)CC[C@H]2c2nc(-c3cncc(Cl)c3)sc2-c2ccc(N3CCS(=O)(=O)CC3)cc2)CC1
[C] N#Cc1ccccc1-c1nc([C@@H]2CCCC[C@H]2C(=O)NC2(C#N)CC2)c(-c2ccc(N3CCS(=O)(=O)CC3)cc2)s1
Query :: Hi! Can you put these in order of IC50, lowest number first? A complete answer lists every label in the requested sequence.
Result :: B, A, C
(B: 1.7 nM, A: 3.3 nM, C: 9.3 nM)
